Cited source for all entries: patent EP1673354B1

# study-system: human adenosine A2a receptors (Homo sapiens, UniProt P29274)
# Construct: expressed in transfected cells; host or cells: CHO-K1 cells with cAMP-inducible beta-galactosidase reporter gene
# Sequence (P29274 whole entry): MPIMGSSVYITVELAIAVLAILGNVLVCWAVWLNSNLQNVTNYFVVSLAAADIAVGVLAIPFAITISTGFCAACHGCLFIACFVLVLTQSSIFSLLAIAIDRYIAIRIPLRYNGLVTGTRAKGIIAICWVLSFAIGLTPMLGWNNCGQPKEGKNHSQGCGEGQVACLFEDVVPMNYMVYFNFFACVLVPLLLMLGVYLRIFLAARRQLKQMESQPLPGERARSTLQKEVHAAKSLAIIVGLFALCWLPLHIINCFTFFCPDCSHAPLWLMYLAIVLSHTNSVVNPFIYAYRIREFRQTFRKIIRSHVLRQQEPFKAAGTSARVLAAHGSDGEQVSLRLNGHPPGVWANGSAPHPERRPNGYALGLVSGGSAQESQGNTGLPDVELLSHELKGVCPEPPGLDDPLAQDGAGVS
# assay-text: Adenosine A2a receptor functional assay, antagonist mode (cAMP-inducible beta-galactosidase reporter, 50 nM NECA)
# Format: cell-based
# condition-parameters: CHO-K1 cells, read-out: Ki (nM) A2a antagonist function
attribute-measured: Ki (nM)

Check out these entries, answers already filled in.
1) CN(C)CCCOC(=O)c1c(N)nc(-c2ccccc2)c2c1-c1ccccc1C2=O [Compound 87]	39.5
2) CN(C)CCN(C)C(=O)c1c(N)nc(-c2ccco2)c2c1-c1ccccc1C2=O [Compound 77]	0.68
3) Nc1nc(-c2ccsc2)c2c(n1)-c1ccccc1C2=O [Compound 15]	0.258

[A] Nc1nc(-c2nccs2)c2c(n1)-c1ccccc1C2=O [Compound 7]
[B] Nc1nc(-c2ccccc2)c2c(c1C(=O)OCCN1CCOCC1)-c1ccccc1C2=O [Compound 91]
query: Endpoint returns the identifier whose Ki is numerically larger, either A or B . Refer to your chosen item by its label in the answer.
result: B

[P] COc1cccc2c1C(=O)c1c(-c3ccco3)nc(N)nc1-2 [Compound 37]
[Q] CN1CCCC1COC(=O)c1c(N)nc(-c2ccccc2)c2c1-c1ccccc1C2=O (stereo not shown) [Compound 90]
query: Identify the entry with the smaller Ki: P or Q . Refer to your chosen item by its label in the answer.
result: P

[P] CN1CCN(Cc2cccc3c2C(=O)c2c(-c4ccccc4)nc(N)nc2-3)CC1 [Compound 50]
[Q] CCN(CC)Cc1cccc2c1C(=O)c1c(-c3ccccc3)nc(N)nc1-2 [Compound 52]
[R] CC(CN(C)C)NC(=O)c1c(N)nc(-c2ccco2)c2c1-c1ccccc1C2=O (stereo not shown) [Compound 78]
[S] COc1ccc(-c2nc(N)nc3c2C(=O)c2ccccc2-3)cc1 [Compound 2]
query: Which order do these items take when sorted by rising Ki? List them. Thanks in advance for listing the labels in the requested order.
result: R, S, P, Q

* * *

# study-system: Adenosine A1 receptor (Homo sapiens)
# Sequence (P30542 whole entry): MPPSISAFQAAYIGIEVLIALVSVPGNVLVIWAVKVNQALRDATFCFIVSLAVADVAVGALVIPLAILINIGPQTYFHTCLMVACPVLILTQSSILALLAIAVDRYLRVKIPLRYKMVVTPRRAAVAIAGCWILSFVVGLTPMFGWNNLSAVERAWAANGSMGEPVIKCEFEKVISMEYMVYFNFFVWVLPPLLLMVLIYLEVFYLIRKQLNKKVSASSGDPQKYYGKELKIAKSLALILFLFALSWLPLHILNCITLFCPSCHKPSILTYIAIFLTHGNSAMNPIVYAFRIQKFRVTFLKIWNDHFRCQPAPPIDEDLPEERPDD
# assay-text: A1 antagonist function (no method described)
# Format: cell-based
attribute-measured: Ki (nM)

1. Nc1nc(-c2ccco2)c2c(n1)-c1cc(C(F)(F)F)ccc1C2=O [Compound 23]	1.47
2. N#Cc1c(N)nc(-c2cccc(F)c2)c2c1-c1ccccc1C2=O [Compound 67]	4.37
3. Nc1nc(-c2ccccc2)c2c(c1C(=O)O)-c1ccccc1C2=O [Compound 65]	163
4. COc1cccc2c1C(=O)c1c(-c3ccco3)nc(N)nc1-2 [Compound 37]	3.07
5. N#Cc1c(N)nc(-c2ccco2)c2c1-c1ccccc1C2O (stereo not shown) [Compound 89]	11.2

[I] CN1CCN(C(=O)c2c(N)nc(-c3ccco3)c3c2-c2ccccc2C3=O)CC1 [Compound 80]
[II] COc1ccccc1-c1nc(N)nc2c1C(=O)c1ccccc1-2 [Compound 12]
query: Endpoint returns the identifier whose Ki is numerically larger, either I or II . Refer to your chosen item by its label in the answer.
result: II

[P] Nc1nc(-c2ccco2)c2c(n1)-c1c(N)cccc1C2=O [Compound 21]
[Q] Nc1nc(-c2ccco2)c2c(n1)-c1ccc(Br)cc1C2=O [Compound 16]
query: Identify the entry with the smaller Ki: P or Q . Refer to your chosen item by its label in the answer.
result: P
(P: 3.51 nM, Q: 5.22 nM)

* * *

# study-system: human adenosine A2a receptors (Homo sapiens, UniProt P29274)
# Construct: expressed in transfected cells; host or cells: CHO-K1 cells with cAMP-inducible beta-galactosidase reporter gene
# assay-text: Adenosine A2a receptor functional assay, antagonist mode (cAMP-inducible beta-galactosidase reporter, 50 nM NECA)
# Format: cell-based
# condition-parameters: CHO-K1 cells, read-out: Ki (nM) A2a antagonist function
attribute-measured: Ki (nM)

1) Nc1nc(-c2ccco2)c2c(n1)-c1c(Cl)ccc(Cl)c1C2=O	0.88

[I] CN(C)CCOC(=O)c1c(N)nc(-c2ccco2)c2c1-c1ccccc1C2=O
[II] COc1ccc(-c2nc(N)nc3c2C(=O)c2ccccc2-3)cn1
query: Identify the entry with the smaller Ki: I or II . Refer to your chosen item by its label in the answer.
result: I
